assay: qHTS of pediatric cancer cell lines to identify multiple opportunities for drug repurposing: Primary screen for NB1643 cells (AID 1347099); conditions: NB1643 neuroblastoma viability, CellTiter-Glo luminescence, 48 h; series mostly up to 46 µM; note: nearly all actives have a fitted effect of over 50% in size
Records with an inconclusive call do not appear. Activity calls are given as the source filed them. Calls come from the whole dose curve; as a rule, active = well fitted cell-killing curve with a large enough effect; inconclusive = small, poorly fitted or top-dose-only effect; inactive = no such curve, though single readings can be large or run the other way.
Can you answer with just one of these options? active, inactive

// return assay outcome for S=C(NCc1ccc2c(c1)OCO2)N1CCN(c2ncnc3c2oc2ccccc23)CC1
active

// return assay outcome for CC(=O)Oc1ccccc1C(=O)O
inactive

Given CC(C)NCC(O)COc1ccc(COCCOC(C)C)cc1 (stereo not given) , state the outcome it received in this test.
inactive

Please let me know the test result on file for COc1cc2c(cc1OC)CN(CCc1ccc(NC(=O)c3cccc4c(=O)c5cccc(OC)c5[nH]c34)cc1)CC2 .
active

I'd appreciate the recorded outcome for OCCn1cc(-c2cnc3nnn(Cc4ccc5ncccc5c4)c3n2)cn1 from this test.
inactive

Name the outcome recorded for COc1ccc(-c2ccc3c(N4CCOCC4)nc(N4C[C@@H](C)O[C@@H](C)C4)nc3n2)cc1CO in the assay.
inactive

Write down the call the test reported for this molecule. Item: NC(=O)c1ccc(-c2nc(-c3ccc4c(c3)OCCO4)c(-c3ccccn3)[nH]2)cc1
inactive

Look up the recorded call for CCOc1cc(C(=O)Nc2ccc(Cl)c(-c3nc4ccccc4[nH]3)c2)cc(OCC)c1OCC in this test.
active

Name the outcome recorded for CN(C)c1ccc(C2Nc3ccc4ccccc4c3C3=C2C(=O)CC(C)(C)C3)cc1Br (stereo not given) in the assay.
active

Short answer needed: outcome of this test for COc1cc2nccc(Oc3ccc(NC(=O)NC4CC4)c(Cl)c3)c2cc1C(N)=O ?
active

How did this test come out for Nc1nc2ccc(OC(F)(F)F)cc2s1 ?
inactive

What outcome does the record of this test show for Cc1cn[nH]c1 ?
inactive

// outcome(item) with item = C1COC(NC(C2CC2)C2CC2)=N1
inactive

Query: recorded result category for CC(C)(N)C(=O)N[C@H](COCc1ccccc1)C(=O)N1CCC2(CC1)CN(S(C)(=O)=O)c1ccccc12 in this test
active

Test call, this molecule: COc1ccc([C@@H]2CC(=O)c3c(O)cc(O[C@@H]4O[C@H](CO[C@@H]5O[C@@H](C)[C@H](O)[C@@H](O)[C@@H]5O)[C@@H](O)[C@H](O)[C@@H]4O)cc3O2)cc1O
inactive

Tell me the recorded outcome of this test for C[C@]12CC[C@H](O)CC1=CC[C@@H]1[C@H]2CC[C@]2(C)C(c3cccnc3)=CC[C@H]12 .
inactive

Could you check what this test reported for NS(=O)(=O)c1cc2c(cc1Cl)NC=NS2(=O)=O ?
inactive

// return assay outcome for Cc1ccc(NC(=O)c2cccc(C(C)(C)C#N)c2)cc1Nc1ccc2ncn(C)c(=O)c2c1
active

Look up the recorded call for Cc1ccnc(NS(=O)(=O)c2ccc(NC(=O)Nc3ccc(S(=O)(=O)Nc4nccc(C)n4)cc3)cc2)n1 in this test.
inactive

Which outcome was assigned to CC1(C)SCCN(S(=O)(=O)c2ccc(OCC#CCO)cc2)[C@@H]1C(=O)NO in this test?
inactive

So what was the verdict on NC(=O)c1ccc(-c2nc(-c3ccc4c(c3)OCO4)c(-c3ccccn3)[nH]2)cc1 in this test?
inactive

How did this test come out for C[C@H](NC(=O)Cc1cc(F)cc(F)c1)C(=O)N[C@@H]1C(=O)N(C)c2ccccc2-c2ccccc21 ?
active

Tell me the recorded outcome of this test for O=NN(CCCl)C(=O)NCCCl .
inactive

Would you mind telling me which call this test gave COc1cc(Oc2ccnc3cc(OC)c(OC)cc23)ccc1NC(=O)NC(C)c1nccs1 (stereo not given) ?
inactive

Status in this test for Clc1ccc(Nc2nnc(Cc3ccncc3)c3ccccc23)cc1 ?
inactive

Assay result, entry CCCCCCCc1ccc(CCc2cccc(O)c2C(=O)O)cc1 — outcome?
inactive

GET /call?item= Cc1c(CN2CCN(C(=O)C(C)C)CC2)sc2c(N3CCOCC3)nc(-c3cnc(N)nc3)nc12 returns the recorded outcome of this test.
active

Tell me the recorded outcome of this test for O=C(Nc1cccnc1)N1CCC(Cc2cccc(Oc3ccc(C(F)(F)F)cn3)c2)CC1 .
inactive

In this assay, the call recorded for CN1CCN(CCCN2c3ccccc3Sc3ccc(C(F)(F)F)cc32)CC1 was what?
active

Check the results log: what was the call for OC(CCN1CCCCC1)(c1ccccc1)C1CC2C=CC1C2 (stereo not given) ?
inactive

Lab log entry: O=C1CCC(N2C(=O)c3ccccc3C2=O)C(=O)N1 (stereo not given) — outcome as called in the assay?
inactive

What is the recorded call for this molecule in the test? Cc1cccc(-c2nn(C(=S)Nc3ccccc3)cc2-c2ccnc3ccccc23)n1
inactive

Tell me the recorded outcome of this test for Cc1c(C)c2c(c(C)c1O)CCC(C)(COc1ccc(CC3SC(=O)NC3=O)cc1)O2 (stereo not given) .
inactive

Per the records of this test, what outcome belongs to CN(C)c1ccc(Nc2nc(N)n(C(=O)c3c(F)cccc3F)n2)cc1 ?
active

Please let me know the test result on file for O=c1ncn2nc(Sc3ccc(F)cc3F)ccc2c1-c1c(Cl)cccc1Cl .
inactive

Would you mind telling me which call this test gave O=C(Nc1nc2ccccc2n1CCN1CCOCC1)c1cccc([N+](=O)[O-])c1 ?
active

GET /call?item= COc1cc(Nc2ncc3c(n2)-c2ccc(Cl)cc2C(c2c(F)cccc2OC)=NC3)ccc1C(=O)O returns the recorded outcome of this test.
active

GET /call?item= Cc1oncc1C(=O)Nc1ccc(C(F)(F)F)cc1 returns the recorded outcome of this test.
inactive

So what was the verdict on O=C(O)CCc1ccc(NCc2cccc(Oc3ccccc3)c2)cc1 in this test?
inactive

Please share the test call associated with CCN(CC)CCCC(C)Nc1nc(C)cc(Nc2ccc3nc(C)cc(N)c3c2)n1 (stereo not given) .
inactive
